# Tested Target: BRD4 second bromodomain (BD2), D334-E460 (human, UniProt O60885-1 334-460)
# Protocol Description: ITC; peptide in the syringe titrated into protein in the cell; 15 °C; 50 mM HEPES pH 7.5, 150 mM NaCl; single binding site model
# Setup Conditions: both partners purified
Where no end group is shown, it is not given here.
Assay Endpoint: stoichiometry N

As a guide, the following entries are already answered.
[
  {
    "Binder": "RRRK(Ac)RFK(Ac)RHQ [FOXD3 K235ac/K238ac peptide]",
    "Measured": 0.75
  },
  {
    "Binder": "HFAK(Ac)ARK(Ac)VPS [FOXN3 K426ac/K429ac peptide]",
    "Measured": 0.59
  },
  {
    "Binder": "DGGK(Ac)SGK(Ac)APR [FOXO3 K242ac/K245ac peptide]",
    "Measured": 0.64
  }
]

[a] IHCK(Ac)AGK(Ac)GRT [PTEN K125ac/K128ac peptide]
[b] LTNK(Ac)GHK(Ac)WKQ [DMTF1 K147ac/K150ac peptide]
Input: // pick min by stoichiometry N: a , b Refer to your chosen entry by its label in the reply.
Output: a
(a: 0.6, b: 1.1)
